Conditions: in n-butanol, 288.15 K

>  <SMILES ENTRY>
COc1ccc(Cl)cc1C(=O)NCCc1ccc(S(=O)(=O)NC(=O)NC2CCCCC2)cc1

>  <solubility (mole fraction)>
0.000223

$$$$

---

Details: in n-butanol, 283.15 K

>  <SMILES ENTRY>
COc1ccc(Cl)cc1C(=O)NCCc1ccc(S(=O)(=O)NC(=O)NC2CCCCC2)cc1

>  <solubility (mole fraction)>
0.000186

$$$$

---

Settings: in n-butanol, 308.15 K
OUTCOME MEASURE: solubility (mole fraction)

>  <SMILES ENTRY>
COc1ccc(Cl)cc1C(=O)NCCc1ccc(S(=O)(=O)NC(=O)NC2CCCCC2)cc1

>  <OUTCOME MEASURE>
solubility (mole fraction)

>  <OBSERVED VALUE>
0.000445

$$$$
